# assaySystem: T1, Rhesus CD3εδ Fc heterodimer (rhesus)
# T1 construct: extracellular domain; also called Rh CD3εδ-Fc
# protocolText: BLI (Octet), Fab monovalent, pH 7.4
Below is a list of entries, each paired with its recorded pKd value.
// scale note: pKd = -log10(conc_M); give the bare number

binder="Antibody No. A004 (ADI-26920) Fab (Fab, V domains shown, Fab by papain digestion of the IgG1) VH: QVQLVQSGAEVKKPGASVKVSCKASGFNIKDYYMHWVRQAPGQRLEWMGWIDLENANTIYDAKFQGRVTITRDTSASTAYMELSSLRSEDTAVYYCGRDAYGRYFYDVWGQGTLVTVSS VL: DIVMTQSPDSLAVSLGERATINCKSSQSLLNARTGKNYLAWYQQKPGQPPKLLIYWASTRESGVPDRFSGSGSGTDFTLTISSLQAEDVAVYYCKQSYSLRTFGGGTKVEIK" assaymetric=pKd experimentalresult=7.29

input: Look up pKd: Antibody No. A003 (ADI-26913) Fab (Fab, V domains shown, Fab by papain digestion of the IgG1) VH: QVQLVQSGAEVKKPGASVKVSCKASGFNIKDYYMHWVRQAPGQRLEWMGWIDLENANTIYDAKFQGRVTITRDTSASTAYMELSSLRSEDTAVYYCARDQYGRYFYDVWGQGTLVTVSS VL: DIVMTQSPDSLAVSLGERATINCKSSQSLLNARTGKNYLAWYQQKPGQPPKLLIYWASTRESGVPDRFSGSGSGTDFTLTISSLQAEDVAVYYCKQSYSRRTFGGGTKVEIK
output: 7.48

input: And then Antibody No. V009 (ADI-70326) Fab (Fab, V domains shown, Fab by papain digestion of the IgG1) VH: QVQLVQSGAEVKKPGASVKVSCKASGFDIKDYYMHWVRQAPGQRLEWIGWIELENADTVYDAKFQGRVTITRDTSASTAYMELSSLRSEDTAVYYCARDAYGRYFYDVWGQGTLVTVSS VL: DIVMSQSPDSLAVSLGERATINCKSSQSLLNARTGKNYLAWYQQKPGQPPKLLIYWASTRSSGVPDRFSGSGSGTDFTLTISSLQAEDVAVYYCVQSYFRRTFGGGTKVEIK , what is it?
output: 8.74
